- target.under.test: T1, recombinant human IL-12 (rhIL-12) (human, UniProt P29459 23-219; P29460 23-328)
- T1 chain 1: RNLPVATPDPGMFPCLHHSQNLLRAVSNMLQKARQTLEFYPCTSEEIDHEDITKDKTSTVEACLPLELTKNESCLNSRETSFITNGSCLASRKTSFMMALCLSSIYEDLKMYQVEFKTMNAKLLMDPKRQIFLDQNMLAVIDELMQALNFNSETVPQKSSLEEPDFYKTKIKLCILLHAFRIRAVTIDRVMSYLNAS
- T1 chain 2: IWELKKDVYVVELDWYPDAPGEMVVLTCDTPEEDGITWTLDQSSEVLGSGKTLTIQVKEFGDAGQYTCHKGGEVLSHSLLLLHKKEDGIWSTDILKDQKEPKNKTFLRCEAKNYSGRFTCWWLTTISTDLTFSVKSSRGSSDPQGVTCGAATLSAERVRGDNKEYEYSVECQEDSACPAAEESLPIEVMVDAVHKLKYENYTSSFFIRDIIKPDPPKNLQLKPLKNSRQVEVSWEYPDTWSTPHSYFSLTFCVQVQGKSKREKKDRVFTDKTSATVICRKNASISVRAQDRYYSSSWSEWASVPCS
- procedure.text: BIAcore
measured.quantity: koff (s⁻¹)
Answers are plain numbers, in s⁻¹.

WNDQRPS [Y61 L50 W]    0.000382
INDQRPS [Y61 L50 I]    0.0012
GNDRRPS [Y61 L53 R]    0.000614

Switching to the query record.
Request the reported koff associated with HNDQRPS [Y61 L50 H]
0.000761
